ASSAY METHOD TEXT: reduction of polyQ htt aggregates in cells – imaging, exon1htt(103Q)mCFP cells, high-content imaging, primary screen (AID 483);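 further: compound exposure lasted 3 days before fixation; percent of the per-plate median nuclei count of sample wells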
STUDY CONDITIONS: exon1htt(103Q)mCFP cell line, aggregate imaging, at 2 µM; measured here: cell count, toxicity
OBSERVED PROPERTY: nuclei count (%)
Reply with just the number (in %).

COMPOUND	VALUE OBSERVED
O=C(c1ccc(S(=O)(=O)N2CCC(c3nc4ccccc4s3)CC2)cc1)N1CCOCC1	109
COc1ccc(C(=O)CN2C(=O)NC3(CCCc4ccccc43)C2=O)cc1OC (configuration not stated)	94.1
Cc1ccc(OC(=O)CCC(=O)OCCCC(F)(F)C(F)(F)F)cc1	103

Look up nuclei count: "CCOC(=O)c1cccc(NC(=O)C2CCN(S(=O)(=O)c3cccs3)CC2)c1"
90.7

Look up nuclei count: CC(C)c1ccc(C(O)c2cnc(C(C)C)n2C)cc1 (configuration not stated)
50.5

Look up nuclei count: "Cc1cc(NC(=O)c2cc(-c3ccco3)on2)n(-c2ccccc2)n1"
105

Look up nuclei count: "COc1cc(SC)ccc1C(=O)Nc1ccccc1C#N"
2.1

Look up nuclei count: "O=C(Oc1ccc(Cl)cc1N1C(=O)CCC1=O)c1ccco1"
114

Look up nuclei count: "COc1ccccc1CC(=O)Nc1ccc(OC)c(OC)c1"
102

Look up nuclei count: "N#Cc1cnc2sc3ccccc3n2c1=N"
119

Look up nuclei count: "O=C(Nc1ccc2c(c1)OCO2)c1cccc(Cl)c1"
107

Look up nuclei count: CCn1ncc(C2=NOC(C(=O)NCc3ccccc3)C2)c1C (configuration not stated)
2.2
